Biological target: human EGFR on cells (A431, NCI-H292, NCI-H322, NCI-H441) (human, UniProt P00533 25-1210)
Test: cell-based or functional assay
Exercise: state measured Phospho-EGFR IC50 (A431 cells) for each of the binders provided.
One number for each entry, in nM.

// below: answered binders
- binder: "P54CR4-31 (designed binder, not shown: small tags and cut ends) LPAPKNLVVSEVTEDSLRLSWTAPDAAFDSFLIQYQESEKVGEAINLTVPGSERSYDLTGLKPGTEYTVSIYGVLGSYVFEHDVMLPLSAEFTT"
  unit_annotation: "nM"
  Phospho-EGFR IC50 (A431 cells): 179
- binder: "P54AR4-48 (designed binder, not shown: small tags and cut ends) LPAPKNLVVSEVTEDSLRLSWDDPRGFYESFLIQYQESEKVGEAINLTVPGSERSYDLTGLKPGTEYTVSIYGVHNVYKDTNMRGLPLSAEFTT"
  unit_annotation: "nM"
  Phospho-EGFR IC50 (A431 cells): 170
- binder: "P54AR4-73 (designed binder, not shown: small tags and cut ends, also called P54AR4-37) LPAPKNLVVSEVTEDSLRLSWTWPYADLDSFLIQYQESEKVGEAINLTVPGSERSYDLTGLKPGTEYTVSIYGVHNVYKDTNMRGLPLSAEFTT"
  unit_annotation: "nM"
  Phospho-EGFR IC50 (A431 cells): 141
- binder: "P54AR4-83 (designed binder, not shown: small tags and cut ends) LPAPKNLVVSEVTEDSLRLSWDDPWAFYESFLIQYQESEKVGEAINLTVPGSERSYDLTGLKPGTEYTVSIYGVHNVYKDTNMRGLPLSAEFTT"
  unit_annotation: "nM"
  Phospho-EGFR IC50 (A431 cells): 18

Any idea what Phospho-EGFR IC50 (A431 cells) was measured for P54AR4-17 (designed binder, not shown: small tags and cut ends) LPAPKNLVVSEVTEDSLRLSWTYDRDGYDSFLIQYQESEKVGEAINLTVPGSERSYDLTGLKPGTEYTVSIYGVHNVYKDTNMRGLPLSAEFTT ? 184
